Method Notes: S6 kinase pathway phospho-S6 level changes – cell-based, A549, cytoblot, luminescence, serum-stimulated, primary screen (AID 1158);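 also: serum-stimulated A549 lung adenocarcinoma cells; signal is phosphorylated S6 detected by cytoblot immunostaining with HRP secondary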
Study Conditions: 5 h, higher = more signal
Use 0.02 as the dividing line for z-score, with the line itself on the YES side and lower values as NO.

[
  {
    "Compound": "COC(=O)C[C@H]1O[C@@H](CCc2ccccc2)[C@@H](C)[C@@H]1[Si](C)(C)c1ccc(OC)cc1",
    "Class": "YES"
  },
  {
    "Compound": "COC(=O)[C@@]1(Cc2ccc(F)cc2)[C@H]2c3cc(C(=O)N(C)C)n(Cc4ccc(C)o4)c3C[C@H]2CN1C(=O)c1ccccc1",
    "Class": "NO"
  },
  {
    "Compound": "COc1ccc([Si](C)(C)[C@@H]2[C@@H](CC(=O)N3CCC[C@H]3CO)O[C@]3(C(=O)N(Cc4cccc(I)c4)c4ccccc43)[C@H]2C)cc1",
    "Class": "YES"
  },
  {
    "Compound": "O=C1[C@H]2C=C(Br)[C@H](C[C@@H]2OCCCCCCO)[C@@]12CO2",
    "Class": "NO"
  },
  {
    "Compound": "C=C(CCCC)C(=O)CC[C@@H](OC(C)=O)c1ccc(CO)o1",
    "Class": "NO"
  },
  {
    "Compound": "CO[C@H]1O[C@H](CO)[C@@H](OC(=O)Nc2ccccc2-c2ccccc2)[C@H](OC(=O)Nc2ccccc2-c2ccccc2)[C@@H]1OC(=O)Nc1ccccc1-c1ccccc1",
    "Class": "NO"
  },
  {
    "Compound": "CCOc1ccc(N2C(=O)CSC2c2cccc([N+](=O)[O-])c2)cc1 (stereo unspecified)",
    "Class": "NO"
  },
  {
    "Compound": "CCOC(=O)C1=C[C@@H](C(C)C)N(S(=O)(=O)c2ccc(C)cc2)[C@H]1c1ccccc1F",
    "Class": "NO"
  },
  {
    "Compound": "C=CCN1C(=O)[C@]2(Cc3ccccc3)N=C(c3ccc(OCCCO)cc3)O[C@@H]2c2ccccc21",
    "Class": "NO"
  },
  {
    "Compound": "NC(=O)[C@@]1(Cc2ccccc2)N=C(c2ccc(OCCCO)cc2)O[C@H]1c1ccccc1",
    "Class": "YES"
  },
  {
    "Compound": "COC(=O)[C@@]1(Cc2ccc(OC)cc2)[C@H]2c3cc(C(=O)N4CCCC4)n(CCc4ccc(O)c(O)c4)c3C[C@H]2CN1C(=O)c1ccccc1",
    "Class": "YES"
  },
  {
    "Compound": "C=CCN1C(=O)[C@]2(O[C@H](CCO)[C@@H]([Si](C)(C)c3ccc(OC)cc3)[C@@H]2C)c2cc(N(C=O)c3ccccc3)ccc21",
    "Class": "YES"
  },
  {
    "Compound": "COC(=O)[C@@]1(Cc2ccccc2)[C@H]2c3cc(C(=O)N4CCCC4)n(Cc4c(CO)[nH]cc(C)c4=O)c3C[C@H]2CN1C(=O)c1ccccc1",
    "Class": "NO"
  },
  {
    "Compound": "CN1CCC(CCCO)=CC1c1cccs1 (stereo unspecified)",
    "Class": "YES"
  },
  {
    "Compound": "COCC(=C=CC[C@@H](O)c1ccc(OCCO)cc1)C[C@@H](O)c1ccccn1",
    "Class": "NO"
  },
  {
    "Compound": "[N-]=[N+]=NCc1ccccc1[C@@H]1OC(c2ccc(OCCCO)cc2)=N[C@]1(CCS(=O)(=O)c1ccccc1)C(=O)N1CCOCC1",
    "Class": "YES"
  }
]
